biological target: fusion protein PRD
Sequence (chain, as listed by the source): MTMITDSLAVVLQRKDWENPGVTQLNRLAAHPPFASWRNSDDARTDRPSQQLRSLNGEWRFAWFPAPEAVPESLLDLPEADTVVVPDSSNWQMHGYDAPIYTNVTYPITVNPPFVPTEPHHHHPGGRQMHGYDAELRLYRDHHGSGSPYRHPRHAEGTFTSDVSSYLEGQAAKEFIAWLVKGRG
Measured Attribute: relative cleavage efficiency

Protein: OmpT protease variant OmpT D97T (protein) STETLSFTPDNINADISLGTLSGKTKERVYLAEEGGRKVSQLDWKFNNAAIIKGAINWDLMPQISIGAAGWTTLGSRGGNMVDQDWMDSSNPGTWTTESRHPDTQLNYANEFDLNIKGWLLNEPNYRLGLMAGYQESRYSFTARGGSYIYSSEEGFRDDIGSFPNGERAIGYKQRFKMPYIGLTGSYRYEDFELGGTFKYSGWVESSDNDEHYDPGKRITYRSKVKDQNYYSVAVNAGYYVTPNAKVYVEGAWNRVTNKKGNTSLYDHNNNTSDYSKNGAGIENYNFITTAGLKYTF
relative cleavage efficiency: less than 3%
//
Protein: OmpT protease variant OmpT D97P (protein) STETLSFTPDNINADISLGTLSGKTKERVYLAEEGGRKVSQLDWKFNNAAIIKGAINWDLMPQISIGAAGWTTLGSRGGNMVDQDWMDSSNPGTWTPESRHPDTQLNYANEFDLNIKGWLLNEPNYRLGLMAGYQESRYSFTARGGSYIYSSEEGFRDDIGSFPNGERAIGYKQRFKMPYIGLTGSYRYEDFELGGTFKYSGWVESSDNDEHYDPGKRITYRSKVKDQNYYSVAVNAGYYVTPNAKVYVEGAWNRVTNKKGNTSLYDHNNNTSDYSKNGAGIENYNFITTAGLKYTF
relative cleavage efficiency: less than 3.0%
//
Protein: OmpT protease variant OmpT D97S (protein) STETLSFTPDNINADISLGTLSGKTKERVYLAEEGGRKVSQLDWKFNNAAIIKGAINWDLMPQISIGAAGWTTLGSRGGNMVDQDWMDSSNPGTWTSESRHPDTQLNYANEFDLNIKGWLLNEPNYRLGLMAGYQESRYSFTARGGSYIYSSEEGFRDDIGSFPNGERAIGYKQRFKMPYIGLTGSYRYEDFELGGTFKYSGWVESSDNDEHYDPGKRITYRSKVKDQNYYSVAVNAGYYVTPNAKVYVEGAWNRVTNKKGNTSLYDHNNNTSDYSKNGAGIENYNFITTAGLKYTF
relative cleavage efficiency: less than 3%
//
Protein: OmpT protease variant OmpT D97C (protein) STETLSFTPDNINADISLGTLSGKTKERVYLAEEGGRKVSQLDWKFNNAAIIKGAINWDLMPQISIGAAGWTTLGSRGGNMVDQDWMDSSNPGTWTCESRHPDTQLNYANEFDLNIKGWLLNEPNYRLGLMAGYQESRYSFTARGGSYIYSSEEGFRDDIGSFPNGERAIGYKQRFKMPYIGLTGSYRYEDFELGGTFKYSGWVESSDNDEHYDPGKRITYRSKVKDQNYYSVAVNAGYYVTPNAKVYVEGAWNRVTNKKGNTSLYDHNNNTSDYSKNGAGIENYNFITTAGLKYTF
relative cleavage efficiency: less than 3%

For the protein OmpT protease variant OmpT D97V (protein) STETLSFTPDNINADISLGTLSGKTKERVYLAEEGGRKVSQLDWKFNNAAIIKGAINWDLMPQISIGAAGWTTLGSRGGNMVDQDWMDSSNPGTWTVESRHPDTQLNYANEFDLNIKGWLLNEPNYRLGLMAGYQESRYSFTARGGSYIYSSEEGFRDDIGSFPNGERAIGYKQRFKMPYIGLTGSYRYEDFELGGTFKYSGWVESSDNDEHYDPGKRITYRSKVKDQNYYSVAVNAGYYVTPNAKVYVEGAWNRVTNKKGNTSLYDHNNNTSDYSKNGAGIENYNFITTAGLKYTF , what relative cleavage efficiency is on record?
less than 3.0%

Using the record for OmpT protease variant OmpT D97W (protein) STETLSFTPDNINADISLGTLSGKTKERVYLAEEGGRKVSQLDWKFNNAAIIKGAINWDLMPQISIGAAGWTTLGSRGGNMVDQDWMDSSNPGTWTWESRHPDTQLNYANEFDLNIKGWLLNEPNYRLGLMAGYQESRYSFTARGGSYIYSSEEGFRDDIGSFPNGERAIGYKQRFKMPYIGLTGSYRYEDFELGGTFKYSGWVESSDNDEHYDPGKRITYRSKVKDQNYYSVAVNAGYYVTPNAKVYVEGAWNRVTNKKGNTSLYDHNNNTSDYSKNGAGIENYNFITTAGLKYTF , report its relative cleavage efficiency.
less than 3.0%

Please give the measured relative cleavage efficiency for this protein: OmpT protease variant OmpT D97L (protein) STETLSFTPDNINADISLGTLSGKTKERVYLAEEGGRKVSQLDWKFNNAAIIKGAINWDLMPQISIGAAGWTTLGSRGGNMVDQDWMDSSNPGTWTLESRHPDTQLNYANEFDLNIKGWLLNEPNYRLGLMAGYQESRYSFTARGGSYIYSSEEGFRDDIGSFPNGERAIGYKQRFKMPYIGLTGSYRYEDFELGGTFKYSGWVESSDNDEHYDPGKRITYRSKVKDQNYYSVAVNAGYYVTPNAKVYVEGAWNRVTNKKGNTSLYDHNNNTSDYSKNGAGIENYNFITTAGLKYTF
less than 3%

Quick one: relative cleavage efficiency of OmpT protease variant OmpT D97A (protein) STETLSFTPDNINADISLGTLSGKTKERVYLAEEGGRKVSQLDWKFNNAAIIKGAINWDLMPQISIGAAGWTTLGSRGGNMVDQDWMDSSNPGTWTAESRHPDTQLNYANEFDLNIKGWLLNEPNYRLGLMAGYQESRYSFTARGGSYIYSSEEGFRDDIGSFPNGERAIGYKQRFKMPYIGLTGSYRYEDFELGGTFKYSGWVESSDNDEHYDPGKRITYRSKVKDQNYYSVAVNAGYYVTPNAKVYVEGAWNRVTNKKGNTSLYDHNNNTSDYSKNGAGIENYNFITTAGLKYTF ?
less than 3%
